Provenance of the data: patent US20050143391A1

- TEST SYSTEM: integrin α4β1 (Homo sapiens, UniProt P05556+P13612)
- Construct: endogenous in cells
- Sequence (P13612 34-1032): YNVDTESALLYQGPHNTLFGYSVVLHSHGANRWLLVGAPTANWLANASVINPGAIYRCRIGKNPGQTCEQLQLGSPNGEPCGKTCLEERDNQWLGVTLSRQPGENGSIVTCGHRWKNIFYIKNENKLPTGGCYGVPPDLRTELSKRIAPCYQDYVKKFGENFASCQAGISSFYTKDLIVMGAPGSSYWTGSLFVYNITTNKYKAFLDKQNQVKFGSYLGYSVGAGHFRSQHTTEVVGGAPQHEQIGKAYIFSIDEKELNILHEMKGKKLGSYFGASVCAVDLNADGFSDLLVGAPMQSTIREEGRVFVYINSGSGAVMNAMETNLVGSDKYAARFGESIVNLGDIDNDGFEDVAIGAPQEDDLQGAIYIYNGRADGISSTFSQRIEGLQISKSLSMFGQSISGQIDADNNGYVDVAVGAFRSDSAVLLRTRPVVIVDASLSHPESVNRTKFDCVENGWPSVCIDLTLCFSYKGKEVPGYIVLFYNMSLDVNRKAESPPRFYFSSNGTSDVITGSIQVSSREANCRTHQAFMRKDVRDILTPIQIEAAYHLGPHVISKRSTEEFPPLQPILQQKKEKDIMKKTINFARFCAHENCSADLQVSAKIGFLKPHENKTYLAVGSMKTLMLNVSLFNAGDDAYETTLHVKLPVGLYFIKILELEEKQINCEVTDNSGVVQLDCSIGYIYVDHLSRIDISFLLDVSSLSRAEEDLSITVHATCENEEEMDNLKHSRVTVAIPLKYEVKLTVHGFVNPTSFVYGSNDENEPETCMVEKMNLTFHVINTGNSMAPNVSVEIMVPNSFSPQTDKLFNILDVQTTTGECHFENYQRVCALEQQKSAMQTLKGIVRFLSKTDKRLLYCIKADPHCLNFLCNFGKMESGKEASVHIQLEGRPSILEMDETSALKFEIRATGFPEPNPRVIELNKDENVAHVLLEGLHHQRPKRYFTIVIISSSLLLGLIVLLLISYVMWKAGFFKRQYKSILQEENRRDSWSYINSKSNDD
- Sequence (P05556 21-798): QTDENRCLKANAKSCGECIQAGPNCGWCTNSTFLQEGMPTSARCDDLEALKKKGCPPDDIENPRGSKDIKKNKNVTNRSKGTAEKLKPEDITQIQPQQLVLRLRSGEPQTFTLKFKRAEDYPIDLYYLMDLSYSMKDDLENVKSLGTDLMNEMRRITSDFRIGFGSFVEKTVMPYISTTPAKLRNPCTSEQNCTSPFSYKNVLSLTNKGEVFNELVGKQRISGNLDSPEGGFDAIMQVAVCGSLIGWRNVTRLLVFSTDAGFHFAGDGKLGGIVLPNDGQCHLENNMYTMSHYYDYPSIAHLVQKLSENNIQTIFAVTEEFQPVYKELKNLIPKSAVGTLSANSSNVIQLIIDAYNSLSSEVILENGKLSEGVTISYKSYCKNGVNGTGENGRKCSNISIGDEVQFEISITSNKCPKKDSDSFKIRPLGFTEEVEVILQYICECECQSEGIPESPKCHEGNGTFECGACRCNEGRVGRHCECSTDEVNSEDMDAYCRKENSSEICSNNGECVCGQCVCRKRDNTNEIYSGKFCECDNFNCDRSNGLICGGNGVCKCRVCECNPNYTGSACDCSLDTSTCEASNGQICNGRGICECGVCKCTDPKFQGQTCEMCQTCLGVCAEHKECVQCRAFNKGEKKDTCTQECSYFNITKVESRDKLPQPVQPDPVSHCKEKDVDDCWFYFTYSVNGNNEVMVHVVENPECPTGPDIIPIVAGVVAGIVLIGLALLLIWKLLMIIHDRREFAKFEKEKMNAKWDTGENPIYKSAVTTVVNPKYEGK
- METHOD NOTES: Inhibition of α4β1-dependent cell adhesion (Jurkat cells to peptide CS-1)
- CONDITION: adhesion of Jurkat cells to CS-1-coated plates; products preincubated with cells at 37° C. for 30 minutes; at least 6 product concentrations
- Description: Inhibition of α4β1-Dependent Cell Adhesion Inhibition of α4β1-dependent cell adhesion was assayed by evaluating the interaction between the peptide CS-1 (H-CLHGPEILDVPST-CONH2) and Jurkat cells (T lymphocyte cell line expressing activated integrin α4β1 but not integrin α4β7) after preincubation of said cells with the compounds of formula I to be tested. […] Its identity was determined by elemental analysis and mass spectroscopy. […]
ATTRIBUTE MEASURED: IC50 (nM)

CN(C)CC1CCN(C(=O)CC[C@H](NC(=O)[C@@H]2CCCN2S(=O)(=O)c2cc(Cl)cc(Cl)c2)C(=O)O)CC1
65
CN(C)CC1CCN(C(=O)NC[C@H](NC(=O)[C@@H]2CCCN2S(=O)(=O)c2cc(Cl)cc(Cl)c2)C(=O)O)CC1
4.9

[A] CN(C)CCN1CCN(C(=O)CC[C@H](NC(=O)[C@@H]2CCCN2S(=O)(=O)c2cc(Cl)cc(Cl)c2)C(=O)O)CC1
[B] CCN(CC)CCC1CCN(C(=O)CC[C@H](NC(=O)[C@@H]2CCCN2S(=O)(=O)c2cc(Cl)cc(Cl)c2)C(=O)O)CC1
Query :: For the pair A and B , which member has the lower IC50 number? # reply format: chosen label
Result :: A

[A] O=C(O)[C@H](CCC(=O)N1CCC(CN2CCCC2=O)CC1)NC(=O)[C@@H]1CCCN1S(=O)(=O)c1cc(Cl)cc(Cl)c1
[B] CC(C)CC(=O)NCC1CCN(C(=O)CC[C@H](NC(=O)[C@@H]2CCCN2S(=O)(=O)c2cc(Cl)cc(Cl)c2)C(=O)O)CC1
Query :: Sorting ascending by IC50, which comes first: A or B ? Record your answer as the label of the chosen record.
Result :: A
